# Test system: Pseudomonas aeruginosa
# ASSAY OVERVIEW: Antibacterial activity against Pseudomonas aeruginosa PAO1 by broth dilution method
# Type: functional
PARAMETER: MIC (µg/mL)

{"columns": ["MOLECULE", "READOUT UNITS", "REPORTED"],
 "data": [
  ["CO/N=C(\\C(=O)N[C@@H]1C(=O)N2C(C(=O)O)=C(CSc3nc(=O)c(O)nn3C)CS[C@H]12)c1csc(N)n1 [CEFTRIAXONE]", "µg/mL", 4],
  ["CC1(C)S[C@@H]2[C@H](NC(=O)[C@H](C(=O)O)c3ccsc3)C(=O)N2[C@H]1C(=O)O [TICARCILLIN]", "µg/mL", 8],
  ["CCn1cc(C(=O)O)c(=O)c2ccc(C)nc21 [NALIDIXIC ACID]", "µg/mL", 64],
  ["CC1(C)S[C@@H]2[C@H](NC(=O)C(C(=O)O)c3ccccc3)C(=O)N2[C@H]1C(=O)O (stereo partly specified) [CARBENICILLIN]", "µg/mL", 64],
  ["CC1(C)S[C@@H]2[C@H](NC(=O)[C@H](NC(=O)N3CCNC3=O)c3ccccc3)C(=O)N2[C@H]1C(=O)O [AZLOCILLIN]", "µg/mL", 2],
  ["NC[C@H]1O[C@H](O[C@H]2[C@H](O)[C@@H](O[C@H]3O[C@H](CO)[C@@H](O)[C@H](N)[C@H]3O)[C@H](N)C[C@@H]2N)[C@H](N)C[C@@H]1O [TOBRAMYCIN]", "µg/mL", 0.25]
]}

---

# Tested on: Pseudomonas aeruginosa
# ASSAY OVERVIEW: Antibacterial activity against Pseudomonas aeruginosa NY219 by broth dilution method
# Format: functional

{"columns": ["COMPOUND", "READOUT UNITS", "MIC"],
 "data": [
  ["CC1(C)S[C@@H]2[C@H](NC(=O)C(C(=O)O)c3ccccc3)C(=O)N2[C@H]1C(=O)O (stereo partly specified) [CARBENICILLIN]", "µg/mL", 256],
  ["CC1(C)S[C@@H]2[C@H](NC(=O)[C@H](C(=O)O)c3ccsc3)C(=O)N2[C@H]1C(=O)O [TICARCILLIN]", "µg/mL", 32],
  ["CCn1cc(C(=O)O)c(=O)c2ccc(C)nc21 [NALIDIXIC ACID]", "µg/mL", 64],
  ["NC[C@H]1O[C@H](O[C@H]2[C@H](O)[C@@H](O[C@H]3O[C@H](CO)[C@@H](O)[C@H](N)[C@H]3O)[C@H](N)C[C@@H]2N)[C@H](N)C[C@@H]1O [TOBRAMYCIN]", "µg/mL", 2],
  ["CO/N=C(\\C(=O)N[C@@H]1C(=O)N2C(C(=O)O)=C(CSc3nc(=O)c(O)nn3C)CS[C@H]12)c1csc(N)n1 [CEFTRIAXONE]", "µg/mL", 32],
  ["CC1(C)S[C@@H]2[C@H](NC(=O)[C@H](NC(=O)N3CCNC3=O)c3ccccc3)C(=O)N2[C@H]1C(=O)O [AZLOCILLIN]", "µg/mL", 8]
]}
